Each recorded value in this set is attributed to patent US9062043B2.

# Test system: Jurkat
# test.protocol: Cell proliferation assay, Alamar Blue, Jurkat;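 also: cells exposed to compound for about 4 days at 37 °C, then Alamar Blue added and fluorescence read after about 4 h, controls given medium without drug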
# Type: cell-based
# assay.setup: Homo sapiens, Table 16
pIC50: −log10 of the molar value.
I would appreciate it if you labelled entries MET when pIC50 is 5 or higher, otherwise NOT MET.

| compound | class.label |
| --- | --- |
| c1ccc(Nc2nc3cc(-c4nnc[nH]4)ccc3c3sccc23)cc1 | MET |
| O=C(NC1CC1)c1cccc(Nc2nc3cc(-c4nnn[nH]4)ccc3c3sccc23)c1 | MET |
| O=C(O)c1ccc2c(c1)nc(Nc1cc(Cl)cc(Cl)c1)c1ccsc12 [drawing 984] | MET |
| O=C(O)c1ccc2c(c1)nc(Nc1ccccc1)c1ccsc12 | MET |
| O=C(O)c1ccc2c(c1)nc(Nc1cc(F)cc(F)c1)c1ccsc12 | MET |
| O=C(O)c1ccc2c(c1)nc(Nc1ccc(F)c(Cl)c1)c1ncsc12 | NOT MET |
| CNC(=O)c1cccc(Nc2nc3cc(-c4nnn[nH]4)ccc3c3sccc23)c1 | MET |
| O=C(O)c1ccc2c(c1)nc(Nc1cccc(F)c1)c1ncsc12 | NOT MET |
| O=C(O)c1ccc2c(c1)nc(Nc1cccc(F)c1)c1ccsc12 | MET |

###

# System: MCF-7
# test.protocol: Cell proliferation assay, Alamar Blue, MCF-7
# Assay type: cell-based
# assay.setup: Homo sapiens, MCF7; MCF-7 cells, anti-proliferative

| compound | study.target | unit.info | IC50 |
| --- | --- | --- | --- |
| O=C(O)c1ccc2c(c1)nc(Nc1cc(Cl)cc(Cl)c1)c1ccsc12 [drawing 991] | MCF-7 | µM | 13.7 |

###

# IC50 listing for each entry below
# Tested on: MiaPaca human pancreatic carcinoma cells
# test.protocol: Cell proliferation assay, Alamar Blue, MiaPaca
# Type: cell-based
# assay.setup: MIA PaCa-2, Table 18
endpoint.name: IC50

| compound | endpoint.name | recorded.measurement |
| --- | --- | --- |
| O=C(O)c1ccc2c(c1)nc(NCCc1cccc(Cl)c1)c1ccncc12 [drawing 1021] | IC50 | > 10 µM |
| Nc1ncc2c(n1)c(NC1CC1)nc1cc(C(=O)O)ccc12 [drawing 1102] | IC50 | > 50 µM |
| O=C(O)c1ccc2c(c1)nc(N1CCOCC1)c1nc(NC3CC3)ncc12 [drawing 1085] | IC50 | > 50 µM |
| CN(C)c1ncc2c(n1)c(Nc1cccc(Cl)c1)nc1cc(C(=O)O)ccc12 | IC50 | > 50 µM |
| CCOc1ncc2c(n1)c(NC1CC1)nc1cc(C(=O)O)ccc12 [drawing 1073] | IC50 | > 50 µM |
| O=C(O)c1ccc2c(c1)nc(NC1CC1)c1nc(SCc3ccccc3Cl)ncc12 [drawing 1072] | IC50 | > 50 µM |
| COC(=O)c1ccc2c(c1)nc(NC1CC1)c1nc(SC)ncc12 [drawing 1099] | IC50 | > 50 µM |
| CN(C)CCNc1nc2cc(C(=O)O)ccc2c2cnc(NC3CC3)nc12 [drawing 1100] | IC50 | > 50 µM |
| O=C(O)c1ccc2c(c1)nc(NCCc1cccc(F)c1)c1ccncc12 [drawing 1022] | IC50 | > 10 µM |
| O=C(O)c1ccc2c(c1)nc(NCCCc1ccccc1)c1ccncc12 [drawing 1023] | IC50 | > 10 µM |
